src = ChEMBL document CHEMBL4417621

- Test target: Taste receptor type 2 member 16 (Homo sapiens, UniProt Q9NYV7)
- Sequence (Q9NYV7 whole entry): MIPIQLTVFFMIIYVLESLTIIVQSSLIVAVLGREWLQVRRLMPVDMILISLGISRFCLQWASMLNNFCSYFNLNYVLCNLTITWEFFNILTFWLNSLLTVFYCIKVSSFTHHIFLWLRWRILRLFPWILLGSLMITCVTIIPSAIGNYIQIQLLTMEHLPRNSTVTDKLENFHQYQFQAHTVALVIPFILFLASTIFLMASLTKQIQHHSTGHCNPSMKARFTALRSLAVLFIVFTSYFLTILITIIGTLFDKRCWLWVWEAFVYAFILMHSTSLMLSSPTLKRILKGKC
- Procedure summary: Activation of full-length human TAS2R16 expressed in HEK293T/Galpha16-gustducin 44 cells assessed as stimulation of calcium flux by measuring deltaF/F0 ratio by Fluo-4 dye based FLIPR assay
Outcome measure: EC50 (µM)

{"Smiles input": "OC[C@H]1O[C@@H](Oc2ccccc2)[C@H](O)[C@@H](O)[C@@H]1O", "Assay result": 210}

----------
- Test target: Taste receptor type 2 member 31 (Homo sapiens, UniProt P59538)
- Sequence (P59538 whole entry): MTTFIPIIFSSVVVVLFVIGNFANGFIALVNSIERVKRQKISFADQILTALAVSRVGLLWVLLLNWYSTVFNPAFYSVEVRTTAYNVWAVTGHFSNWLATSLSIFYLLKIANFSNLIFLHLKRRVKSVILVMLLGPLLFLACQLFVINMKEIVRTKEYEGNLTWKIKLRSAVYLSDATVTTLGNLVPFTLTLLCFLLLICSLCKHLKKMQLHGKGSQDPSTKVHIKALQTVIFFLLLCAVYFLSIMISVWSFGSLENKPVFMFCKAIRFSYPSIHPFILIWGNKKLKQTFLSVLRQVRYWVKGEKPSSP
- Procedure summary: Agonist activity at full-length human TAS2R44 expressed in HEK293T/Galpha16-gustducin 44 cells assessed as effect on calcium flux by measuring deltaF/F0 ratio by Fluo-4 dye based FLIPR assay
Outcome measure: EC50 (mM)

{"Smiles input": "OC[C@H]1O[C@H](O[C@]2(CCl)O[C@H](CCl)[C@@H](O)[C@@H]2O)[C@H](O)[C@@H](O)[C@H]1Cl", "Outcome measure": "EC50", "Assay result": 16.7}
